B1: DCAF4 (parent)
chain: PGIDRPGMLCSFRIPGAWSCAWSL

Variants of: B1
procedure.summary: protein stability index of a GFP-peptide fusion (GPS, HEK-293T) (PSI 1-6); higher = more stable;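 also: lentivirally expressed fusions sorted by FACS into six bins by GFP to DsRed ratio, PSI derived from sequencing read proportions per bin multiplied by bin number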
experimental.context: c terminus: a fixed tail appended
Reported protein stability index is given for each of the following variants.
No unit in the answer, only the number.

Study these solved cases before continuing.
    var        reported_endpoint  readout_number
0  S19H  protein stability index             1.6
1   R5P  protein stability index            2.75
2   G2P  protein stability index            1.94
3  I14Q  protein stability index            2.64
4   R5M  protein stability index            3.37

Noted for `G16R` : its protein stability index reads 2.68

GET /value?item= `S11R` &field=protein stability index returns 3.98

For `P15S` the variant record lists protein stability index as 2.74

// recorded protein stability index for `I3H` : 2.39

Lab note: measured protein stability index of `A21W` was 2.83

The reported value for `S23Q` in terms of protein stability index is 3.24
